# System: SW-620 colon
# procedure-text: NCI-60 one-dose screen, 48 h
# experimental-context: 10 µM
This is part of a sample that, as a whole, favours compounds with a hit. Of some 83,000 tested, about 20% had one in any assay. Active and inactive are the calls of the source. The calls were made as follows: active = growth percent below 10; inactive = the rest.
A correct response names exactly one class from Y for active, N for inactive

Reference set, count: 2
>>> assigned_class("CCCCOCCOCCOCc1cc2c(cc1Br)OCO2")
"N"
>>> assigned_class("Cc1nc(Nc2nc3ccccc3o2)nc(-c2cccc([N+](=O)[O-])c2)c1C(=O)Nc1ccc(F)c(Cl)c1")
"Y"

Prompt: Recorded test call requested for NC1CCC(Nc2nc(NCc3ccc(-c4ccccc4O)nc3)c3ncn(C4CCCC4)c3n2)CC1 (stereo not drawn)
Response: Y

Origin of measurements: PubChem BioAssay (NCI)
